The measurements presented in this section are drawn from ChEMBL document CHEMBL1201862.

- Test system: PC-3
- MEASUREMENT_DESCRIPTION: NCI tumour cell line growth inhibition, 48 h
Calls of active or inactive are those of the source. Cut-off read from the data, not from the text of the source: active = GI50 up to about 1.1 µM and inactive = higher.
ENDPOINT_NAME: GI50

Solved cases (5 shown):
CC(NCc1c(O)ccc2c(-c3ccccc3)cc(=O)oc12)C(=O)O (stereo not given) : > 100 µM (inactive)
Cc1cc(C)c2c(O)cc(-c3ccc4ccccc4c3)nc2n1 : 10.2 µM (inactive)
c1ccc(C2SCC3=Nc4ccccc4CN32)cc1 (stereo not given) : 25.9 µM (inactive)
CCCC1c2c(ccc3ccccc23)Oc2ccc3ccccc3c21 : 64.4 µM (inactive)
O=C(NC(Nc1ccc(F)c(Cl)c1)(C(F)(F)F)C(F)(F)F)C(C(F)(F)F)C(F)(F)F : 24.8 µM (inactive)

Fill blank: measured GI50 of the molecule Cc1cc2cc3ccccc3cc2c(=O)[nH]1 is ____.
> 10 µM (inactive)

For the molecule c1ccc([P+](Cc2ccc(C[P+](c3ccccc3)(c3ccccc3)c3ccccc3)cc2)(c2ccccc2)c2ccccc2)cc1 , what GI50 is on record?
40.9 µM (inactive)

// GI50 lookup, key: CNc1ncnc2c1nc(NC1CCCC1)n2C1OC(CO)C(O)C1O (stereo not given)
> 100 µM (inactive)

Look up GI50 for this molecule: COc1ccc(C(C)NNC(=O)c2ccncc2)cc1OC (stereo not given)
> 100 µM (inactive)

GI50 lookup needed for Cc1c2c(c(C)n1-c1ccccc1)C(=O)N(CCN1CCN(c3cccc(C(F)(F)F)c3)CC1)C2=O , thanks.
18.8 µM (inactive)

---

- Test system: KM12
- MEASUREMENT_DESCRIPTION: NCI tumour cell line growth inhibition, 48 h
Active and inactive are the calls of the source. No stated cut-off is given here; in the data, active = GI50 up to about 1.1 µM and inactive = higher.
GI50 reference

COC(=O)C(/C(=N/NC(N)=O)C(=O)Nc1c(C)cccc1C(C)(C)C)c1nc2ccc(Cl)cc2nc1O (stereo not given) : > 100 µM (inactive)
COc1ccc(/C=C/C(C(=O)O)C(=O)O)cc1 : 50.7 µM (inactive)
CCN(/N=C1\CC2C=CCN(C2)C(=O)Cc2c1[nH]c1ccccc21)S(=O)(=O)c1ccc(C)cc1 (stereo not given) : 69.8 µM (inactive)
CSC(=N)N1N=C2c3ccccc3CC[C@@H]2[C@@H]1c1ccccc1 : 14.4 µM (inactive)

Please examine the following record next.
Record request: GI50 value, item N#CC(C#N)=C1NC(=O)CC(=O)N1
> 100 µM (inactive)

---

- System: T47D
- MEASUREMENT_DESCRIPTION: NCI tumour cell line growth inhibition, 48 h
Calls of active or inactive are those of the source. Cut-off read from the data, not from the text of the source: active = GI50 up to about 1.1 µM and inactive = higher.
ENDPOINT_NAME: GI50

Observe how each entry below is paired with its result.
CCOC(=O)c1c(C)[nH]c2c1c(CN(C)C)c(O)c1nc(C)c(C)nc12 : 27 µM (inactive)
CCCCCCCCCC[C@@H](O)[C@@H]1CC[C@@H]([C@@H]2CC[C@@H]([C@@H](O)CCCCCCCCCC[C@H](O)CC3=CC(C)OC3=O)O2)O1 (some centres undefined) : 2.63 µM (inactive)
CC(NCc1c(O)ccc2c(-c3ccccc3)cc(=O)oc12)C(=O)O (centres undefined) : > 100 µM (inactive)
CC1OC(OC2C(OC(=O)[C@]34CCC(C)(C)C[C@H]3C3=CC[C@@H]5[C@@]6(C)CC[C@H](OC7OC(C(=O)O)C(O)C(O)C7O)C(C)(C)[C@@H]6CC[C@@]5(C)[C@]3(C)C[C@H]4O)OCC(O)C2O)C(O)C(OC2OCC(O)(CO)C2O)C1OC1OCC(O)C(O)C1O (some centres undefined) : 8.47 µM (inactive)
CCC1C(c2cc(OC)c(OC)c(OC)c2)c2cc3c(cc2OC1N1CCOCC1)OCO3 (centres undefined) : 10.5 µM (inactive)
CN1CCN(CCn2c3c4ccccc4ccc3c3oc(=O)c4ccccc4c32)CC1 : > 10 µM (inactive)
NC(=O)Oc1ccccc1 : > 100 µM (inactive)
CCCCn1c2c(n(CCCC)c1=S)-c1c(n(CCCC)c(=S)n1CCCC)SSc1c(n(CCCC)c(=S)n1CCCC)-c1c(n(CCCC)c(=S)n1CCCC)SSc1c(n(CCCC)c(=S)n1CCCC)-c1c(n(CCCC)c(=S)n1CCCC)SS2 : 1.5 µM (inactive)

We next turn to a different compound, shown below.
Could you share which GI50 value was measured for O=C(O)c1cc2ccccc2c(/N=N/c2ccc(S(=O)(=O)Nc3ccccn3)cc2)c1O ?
> 100 µM (inactive)
